Reference source: PubChem BioAssay (NCI)

# System: OVCAR-4 ovarian
# experiment_summary: NCI-60 one-dose screen, 48 h (100 = growth as untreated, 0 = no growth, -100 = all killed)
# measurement_context: 10 µM unless noted
# Description: Growth inhibition of the OVCAR-4 human tumor cell line is measured as a screen for anti-cancer activity. Cells are grown in 96 well plates and exposed to the test compound for 48 hours. Compounds are tested at a single concentration, which is 10^-5 M for most compounds. The reported endpoint is percent growth (GI% or GIPRCNT), where numbers from 0 - 100% represent growth inhibition, and numbers from -100% - 0 represent cell death. For example, a value of 40 represents 60% growth inhibition. […]
About 83,000 compounds went through this panel and 20% of them were active in at least one assay; those are over-represented in the sample as a whole.
Threshold 50%: growth strictly smaller gives Criterion met, otherwise Criterion not met.

NC(N)=Nc1ccc(Nc2cccc(Nc3ccc(Cl)c(C(F)(F)F)c3)c2)cn1; Criterion met
COc1ccc(-n2c(/C=C3\C(=O)Nc4ccccc43)ccc2CO)cc1; Criterion not met
CCCCCc1ccc(S(=O)(=O)Nc2cccc(-c3csc(NC(=O)CCCCCN4CCN(C)CC4)n3)c2)cc1; Criterion not met
CS(=O)(=O)Nc1cc(-c2ccc3ncc(C#N)c(N[C@H](CO)c4ccccc4)c3c2)cnc1Cl; Criterion not met
NS(=O)(=O)c1ccc(Nc2nc(N/N=C/CCc3ccccc3)nc(Nc3ccccc3)n2)cc1; Criterion not met
CS(=O)(=O)Nc1cc(-c2ccc3ncc(C#N)c(NCc4ccccc4O)c3c2)cnc1Cl; Criterion met
Cc1ccc(CSc2nc(-c3ccc(Cl)cc3)c(C#N)c(N3CCOCC3)n2)cc1; Criterion not met
CC(=O)c1ccc(Nc2nc(SCC(C)C)nc(-c3ccccc3)c2C#N)cc1; Criterion not met
Cc1ccc(-c2nnc(SCc3ccc(O)c4ncccc34)o2)cc1; Criterion met
